method.notes: gradient 5% acetonitrile 3 min, to 50% in 2 min, to 85% in 15 min, held 3 min, 100 µL/min
condition.context: column: Zorbax Extend-C18 2.1 x 50 mm; eluents: water / acetonitrile, 0.1% formic acid
endpoint.label: RP-LC retention time (s)

* CC(COc1ccccc1)NC(C)C(O)c1ccc(O)cc1 (stereo not given) | 686

I = CN(C)C(=O)c1n[nH]c2c1CN(C(=O)c1ccc(F)cc1)CC2
II = CCCN1C(=O)COc2ccc(-c3noc(-c4ccccc4F)n3)cc21
Prompt: Of I and II , whose reported RP-LC retention time is the larger number? Mark your answer with the label of the selected entry.
Response: II

a = CCc1ccc2nc(C)cc(C(=O)NC)c2c1
b = COc1ccc(-c2noc(CN3N=NC4C(=O)N(c5ccc(F)cc5)C(=O)C43)n2)c(OC)c1 (stereo not given)
Prompt: In terms of reported RP-LC retention time, does a or b have the smaller number? Mark your answer with the label of the selected entry.
Response: a
(a: 568 s, b: 1170 s)

====

method.notes: gradient 5% acetonitrile 3 min, to 50% in 2 min, to 85% in 15 min, held 3 min, 100 µL/min
condition.context: column: Zorbax Extend-C18 2.1 x 50 mm; eluents: water / acetonitrile, 0.1% formic acid
endpoint.label: RP-LC retention time (s)

* Cc1ncn(CC(=O)Nc2cc(F)ccc2F)c(=O)c1C | 658
* CC(C(=O)NCCCN1CCOCC1)n1c2ccccc2c2cnn(C)c(=O)c21 (centres undefined) | 599
* COc1ccc(Cl)cc1NC(=O)Cn1nc2cc(-c3ccccc3)nc(C)n2c1=O | 974
* COc1ccccc1CC(=O)N1CCC2(CC1)N=C(c1ccc(Cl)cc1)NO2 | 884
* COc1ccc(Cl)cc1C(=O)N1CCN(c2ccc(-c3nc(C)cs3)cn2)CC1 | 909
* COc1ccc(S(=O)(=O)NC2CCN(C(=O)Nc3ccc(F)c(Cl)c3)CC2)cc1 | 900
* CCc1nc(-c2ccc(S(=O)(=O)N3CCC(C(=O)NCc4cccs4)CC3)cc2)no1 | 917
* Cc1ccc(CNC(=O)C2(C)CCCN(C(=O)Nc3ccc(C)c(F)c3)C2)cc1 (centres undefined) | 857
* CSc1cccc(NC(=O)Cn2cnc3nc4c(cc3c2=O)CCCC4)c1 | 755

====

method.notes: gradient 5% acetonitrile 3 min, to 50% in 2 min, to 85% in 15 min, held 3 min, 100 µL/min
condition.context: column: Zorbax Extend-C18 2.1 x 50 mm; eluents: water / acetonitrile, 0.1% formic acid
endpoint.label: RP-LC retention time (s)

P = CC1CCN(CCCNC(=O)C2CCc3sc(C(=O)N4CCOCC4)cc3C2)CC1 (stereo not given)
Q = O=C(Cn1nc2c(SC3CCCCC3)nccn2c1=O)N1CCN(c2ccc(F)cc2)CC1
Prompt: Of P and Q , whose reported RP-LC retention time is the larger number? Mark your answer with the label of the selected entry.
Response: Q

P = CC(C)C(=O)Nc1ccc(S(=O)(=O)NCC(c2ccsc2)N(C)C)cc1 (stereo not given)
Q = CC(=O)N1CCc2cc(S(=O)(=O)CCC(=O)N3CCC(CCOc4ccccc4)C3)ccc21 (stereo not given)
Prompt: Of P and Q , whose reported RP-LC retention time is the larger number? Mark your answer with the label of the selected entry.
Response: Q
(Q: 822 s, P: 565 s)

a = CCCn1ncc(N2CCC(C(=O)Nc3ccc(OC)c(OC)c3)CC2)cc1=O
b = CCOC(=O)c1c(C)oc2nc(C)nc(NCc3cccc(OC)c3)c12
Prompt: Of a and b , whose reported RP-LC retention time is the larger number? Mark your answer with the label of the selected entry.
Response: b
(b: 1080 s, a: 693 s)

1 = CSc1cccc(NC(=O)N2CCC(n3c(C)nc4cccnc43)CC2)c1
2 = O=C(Nc1cc(-c2cccc(F)c2)no1)C1CCCN(c2ncnc3c2nc2n3CCCCC2)C1 (stereo not given)
Prompt: Of 1 and 2 , whose reported RP-LC retention time is the larger number? Mark your answer with the label of the selected entry.
Response: 2
